Test: chemical genetic growth profiling, strain panel (AID 1159580);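 also: tested at 20 µM; growth read once vehicle control cultures reached saturation at 30 °C; 1 = growth at the plate median or of vehicle wells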
Conditions: S. cerevisiae deletion strains, growth OD, locus YAL030W, strain snc1, stronger effect = lower value
About 2,000 (36%) of roughly 5,500 compounds were called active. Roughly 18% stayed inconclusive and do not appear here. The list shows a part of the results.
ENDPOINT LABEL: normalized growth
One number for each entry.

Some compounds with recorded normalized growth:
INSERT INTO measurements (compound, endpoint_label, endpoint_value) VALUES
  ('COCCc1ccc(OCC(O)CNC(C)C)cc1 (stereo unspecified)', 'normalized growth', 0.988),
  ('O=C(O)c1cc2ccccc2c(Cc2c(O)c(C(=O)O)cc3ccccc23)c1O', 'normalized growth', 0.994),
  ('CC(N)C(=O)OC(C)(C)Cc1ccc(Cl)cc1 (stereo unspecified)', 'normalized growth', 1.01),
  ('CCOC(=O)c1c(C)c(Cl)c(O)c(Cl)c1O', 'normalized growth', 0.692);

Each compound below has a reported value. Please supply its normalized growth.
1. C=C(C)C1CNC(C(=O)O)C1CC(=O)O (stereo unspecified)
2. CN1CCC(=C2c3ccccc3CC(=O)c3sccc32)CC1
3. CCOC(=O)c1c(C)cc(O)c(C=O)c1O
4. CCCCCCCCCCCCCCCC[N+](C)(C)C
5. CN1CCC(=C2c3ccccc3CCc3sccc32)CC1

Response:
0.99
0.975
0.725
0.0653
0.987

Each compound below has a reported value. Please supply its normalized growth.
1. CCN(CCO)CCCC(C)Nc1ccnc2cc(Cl)ccc12 (stereo unspecified)
2. CCOC(=O)C(=O)C1(C(=O)OCC)Oc2cc(OC)cc(OC)c2C(=O)C1c1ccccc1 (stereo unspecified)

Response:
[0.997, 0.96]

Each compound below has a reported value. Please supply its normalized growth.
1. CCOC(=O)C(C)(C)Oc1ccc(Cl)cc1
2. Cc1[nH]c(C)c(Cl)c(=O)c1Cl
3. Cc1cc(O)c(C=O)c(O)c1C(=O)O
4. NCC1CCC(C(=O)O)CC1 (stereo unspecified)
5. COc1ccc2c(c1OC)C(=O)O[C@@H]2[C@H]1c2cc3c(cc2CCN1C)OCO3
6. NC(=O)C(c1ccccc1)(c1ccccc1)C1CCN(CCc2ccc3c(c2)CCO3)C1 (stereo unspecified)
7. COP(=O)(OC)OC=C(Cl)Cl

Response:
0.976
0.998
0.997
1
0.991
1.03
1

----------
Kindly supply the reported normalized growth values for the records listed here.
Assay: chemical genetic growth profiling, strain panel (AID 1159580)
Conditions: S. cerevisiae deletion strains, growth OD, locus YHR094C, strain hxt1, stronger effect = lower value
Hit rate of the full screen: of about 5,500 compounds, about 2,000 (36%) were called active. Another 18% or so got no clear call; they are omitted. The list shows a part of the results.
Answers are plain numbers.

Some compounds with recorded normalized growth:
INSERT INTO results (compound, endpoint_value) VALUES
  ('S=c1nc[nH]c2nc[nH]c12', 0.987),
  ('COc1ccc2c(C)cc(=O)oc2c1', 1.03),
  ('CCOC(=O)C(C)(C)Oc1ccc(Cl)cc1', 0.993);

Each compound below has a reported value. Please supply its normalized growth.
1. CC(=O)OC(C)(C)[C@@H]1Cc2cc3ccc(=O)oc3cc2O1
2. COc1ccc2c(c1)OCc1c-2oc2cc(OC)ccc12
3. CC(N)C(=O)OC(C)(C)Cc1ccc(Cl)cc1 (stereo unspecified)

Response:
1.01
1.02
0.995

Each compound below has a reported value. Please supply its normalized growth.
1. CC(C)OC(=O)C(C)(C)Oc1ccc(C(=O)c2ccc(Cl)cc2)cc1
2. C[C@]12CC(=O)C3C(CC[C@@H]4C[C@H](O)CC[C@]34C)C1CC[C@]2(O)C(=O)CO (stereo partly specified)
3. O=C(CC[N+](=O)[O-])OC[C@H]1O[C@@H](O)[C@H](OC(=O)CC[N+](=O)[O-])[C@@H](OC(=O)CC[N+](=O)[O-])[C@@H]1OC(=O)CC[N+](=O)[O-]
4. CC(=O)c1c(O)c(C)c(O)c2c1oc1c(C(C)=O)c(O)c(C)c(O)c12
5. CNCCc1ccccn1

Response:
[0.977, 0.986, 1.01, 0.978, 1.01]

----------
Assay: chemical genetic growth profiling, strain panel (AID 1159580);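 also: tested at 20 µM; growth read once vehicle control cultures reached saturation at 30 °C; 1 = growth at the plate median or of vehicle wells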
Conditions: S. cerevisiae deletion strains, growth OD, locus YBR231C, strain swc5, stronger effect = lower value
Hit rate of the full screen: of about 5,500 compounds, about 2,000 (36%) were called active. About 18% were inconclusive and are not listed. Some of the results follow.
ENDPOINT LABEL: normalized growth
Give bare numbers.

Some molecules with recorded normalized growth:
INSERT INTO assay_data (molecule, endpoint_label, endpoint_value) VALUES
  ('COc1cc(O)c(C(=O)/C=C/c2ccc(OC)c(O)c2)c(OC)c1', 'normalized growth', 0.925),
  ('CCOC(=O)C(C)(C)Oc1ccc(Cl)cc1', 'normalized growth', 0.977),
  ('CC(=O)OCC[N+](C)(C)C', 'normalized growth', 1.03),
  ('ClC1=C(Cl)C2(Cl)C3C4C=CC(C4)C3C1(Cl)C2(Cl)Cl (stereo not drawn)', 'normalized growth', 1),
  ('COc1cc(O)c(C(=O)/C=C/c2ccc(O)c(OC)c2)c(OC)c1', 'normalized growth', 0.951),
  ('COc1cc2c(cc1OC)C(=O)OC2', 'normalized growth', 0.98);

Each molecule below has a reported value. Please supply its normalized growth.
1. CC1=C(/C=C/C(C)=C/C=C/C(C)=C/C=C/C=C(C)/C=C/C=C(C)/C=C/C2=C(C)C(=O)C(O)CC2(C)C)C(C)(C)CC(O)C1=O (stereo not drawn)
2. CC(=O)OCC(=O)[C@@]1(O)CCC2C3CCC4=CC(=O)CC[C@]4(C)C3C(=O)C[C@@]21C (stereo partly drawn)
3. S=c1nc[nH]c2nc[nH]c12
4. CCC(=O)O[C@H]1CCC2C3CCC4=CC(=O)CC[C@]4(C)C3CC[C@@]21C (stereo partly drawn)

Response:
1: 1.05; 2: 0.951; 3: 1.02; 4: 0.952

Each molecule below has a reported value. Please supply its normalized growth.
1. CC1=C(/C=C/C(C)=C/C=C/C(C)=C/C=C/C=C(C)/C=C/C=C(C)/C=C/C2=C(C)C(=O)CCC2(C)C)C(C)(C)CCC1=O
2. COc1cc(O)c(C(=O)/C=C/c2ccccc2)c(OC)c1
3. CCOC(=O)C(Cc1ccc(O)cc1)NC(C)=O (stereo not drawn)
4. C[C@]12CCC(=O)C=C1CCC1C2CC[C@@]2(C)C1CC[C@@H]2O (stereo partly drawn)
5. CC(N)C(=O)OC(C)(C)Cc1ccc(Cl)cc1 (stereo not drawn)
6. CCN(CC)CCNC(=O)c1cc(Br)c(N)cc1OC
7. CC1CC2C3CC(F)C4=CC(=O)C=CC4(C)C3(F)C(O)CC2(C)C1(O)C(=O)CO (stereo not drawn)

Response:
1: 0.982; 2: 0.917; 3: 1; 4: 0.99; 5: 1.01; 6: 0.981; 7: 0.992

The molecule CC1=C(CC(=O)O)c2cc(F)ccc2/C1=C\c1ccc(S(C)=O)cc1 (stereo not drawn) showed normalized growth equal to 1.03

----------
Experiment: chemical genetic growth profiling, strain panel (AID 1159580);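 also: tested at 20 µM; growth read once vehicle control cultures reached saturation at 30 °C; 1 = growth at the plate median or of vehicle wells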
Conditions: S. cerevisiae deletion strains, growth OD, locus YLR418C, strain cdc73, stronger effect = lower value
About 2,000 (36%) of roughly 5,500 compounds were called active. Roughly 18% stayed inconclusive and do not appear here. This is one part of the list.
ENDPOINT LABEL: normalized growth
Answers are plain numbers.

Some compounds with recorded normalized growth:
INSERT INTO results (compound, endpoint_value) VALUES
  ('CC(=O)OCC(=O)[C@H]1CCC2C3CCC4=CC(=O)CC[C@]4(C)C3CC[C@@]21C (stereo not given in full)', 0.691),
  ('O=C(CC[N+](=O)[O-])OC[C@H]1O[C@@H](O)[C@H](OC(=O)CC[N+](=O)[O-])[C@@H](OC(=O)CC[N+](=O)[O-])[C@@H]1OC(=O)CC[N+](=O)[O-]', 1.15),
  ('Cc1c(O)c(C(=O)CC(C)C)c2oc3c(C(=O)CC(C)C)c(O)c(C)c(O)c3c2c1O', 0.92),
  ('CC(=O)OCC(=O)[C@@]1(O)CCC2C3CCC4=CC(=O)CC[C@]4(C)C3C(=O)C[C@@]21C (stereo not given in full)', 1.08);

Please examine the following record next.
The compound CC(=O)c1c(O)c(C)c(O)c2c1oc1c(C(C)=O)c(O)c(C)c(O)c12 showed normalized growth equal to 0.9

----------
Assay: chemical genetic growth profiling, strain panel (AID 1159580);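 also: tested at 20 µM; growth read once vehicle control cultures reached saturation at 30 °C; 1 = growth at the plate median or of vehicle wells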
Settings: S. cerevisiae deletion strains, growth OD, locus YIR030C, strain dcg1, stronger effect = lower value
The campaign covered roughly 5,500 compounds. About 2,000 (36%) were called active. Inconclusive results (about 18%) are left out. The list shows a part of the results.
hey, just use y if measured normalized growth is less than 1, otherwise n

// known answers, use as guide
INSERT INTO results (compound, class_name) VALUES
  ('COc1cc2c(cc1OC)C1C(=O)c3c(O)cc4c(c3OC1CO2)C=CC(C)(C)O4 (stereo not drawn)', 'n'),
  ('CCOC(=O)c1c(C)cc(O)c(C=O)c1O', 'y'),
  ('C[N+](C)(C)CCOC(N)=O', 'y'),
  ('CC(=O)OCC[N+](C)(C)C', 'n');

Kindly review the next compound as well.
Request: Strictly below 1: is that where normalized growth of CC(C(=O)O)c1ccc(-c2ccccc2)c(F)c1 (stereo not drawn) sits?
Response: y
